B1: glmS ribozyme (parent)
chain: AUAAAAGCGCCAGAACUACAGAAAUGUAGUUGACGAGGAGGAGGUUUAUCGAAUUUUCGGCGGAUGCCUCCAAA

Variants of: B1
Test Name: self-cleavage kobs at 10000 uM GlcN6P; higher = faster cleavage; RNA array
Stated Conditions: with glucosamine-6-phosphate
Variants at the floor of the assay were thinned out.
Measured Property: self-cleavage kobs at 10000 uM GlcN6P

Exercise: Report self-cleavage kobs at 10000 uM GlcN6P for G38U A52U please.
Solution: < 1e-05 s⁻¹

Exercise: Reported self-cleavage kobs at 10000 uM GlcN6P for A15C U31C U45A G59U U65A : what is it?
Solution: < 1e-05 s⁻¹

Exercise: What does the data say about its self-cleavage kobs at 10000 uM GlcN6P? Entry: G35U U54C U55A G59C
Solution: < 1e-05 s⁻¹

Exercise: Data request, read-out self-cleavage kobs at 10000 uM GlcN6P, for A33G A42C U47C G60A
Solution: < 1e-05 s⁻¹

Exercise: // lookup self-cleavage kobs at 10000 uM GlcN6P for U54G G62C
Solution: < 1e-05 s⁻¹

Exercise: What self-cleavage kobs at 10000 uM GlcN6P value was documented for this variant, A12C U31A G32C C34A U47A C71U ?
Solution: < 1e-05 s⁻¹

Exercise: Given the entry U30G A36G U54G , report its measured self-cleavage kobs at 10000 uM GlcN6P.
Solution: < 1e-05 s⁻¹

Exercise: Dear colleague, I am looking for the recorded self-cleavage kobs at 10000 uM GlcN6P of the following variant: A39C C61A
Solution: < 1e-05 s⁻¹

Exercise: Item under review: C10A U30G A48U . Reported self-cleavage kobs at 10000 uM GlcN6P?
Solution: < 1e-05 s⁻¹

Exercise: Which self-cleavage kobs at 10000 uM GlcN6P value belongs to G7C G41U ?
Solution: < 1e-05 s⁻¹

Exercise: Can you look up the measured self-cleavage kobs at 10000 uM GlcN6P of G9C A64C for me?
Solution: < 1e-05 s⁻¹

Exercise: Which value of self-cleavage kobs at 10000 uM GlcN6P has been reported for C10A A14G G32U A48C G59A in the records?
Solution: < 1e-05 s⁻¹

Exercise: For the variant shown here, A6G A33C , give the reported self-cleavage kobs at 10000 uM GlcN6P.
Solution: < 1e-05 s⁻¹

Exercise: Quick one: self-cleavage kobs at 10000 uM GlcN6P of U31A A36G A52C ?
Solution: < 1e-05 s⁻¹

Exercise: Value lookup for self-cleavage kobs at 10000 uM GlcN6P; key = A53C G62A
Solution: < 1e-05 s⁻¹

Exercise: # get_value(readout='self-cleavage kobs at 10000 uM GlcN6P', item= G7A G35U U57A )
Solution: < 1e-05 s⁻¹

Exercise: Given G29C U46G , state its recorded self-cleavage kobs at 10000 uM GlcN6P.
Solution: 0.000234 s⁻¹

Exercise: Query (variant): U30G G35A G40C C68G ; field requested: self-cleavage kobs at 10000 uM GlcN6P
Solution: < 1e-05 s⁻¹

Exercise: Recorded self-cleavage kobs at 10000 uM GlcN6P of U31C G32A C58A U65G , please.
Solution: 3.72e-05 s⁻¹

Exercise: What measured self-cleavage kobs at 10000 uM GlcN6P goes with C8U G32A G41U ?
Solution: < 1e-05 s⁻¹

Exercise: Give the measured self-cleavage kobs at 10000 uM GlcN6P of G44C C71G .
Solution: < 1e-05 s⁻¹

Exercise: Form field: reported self-cleavage kobs at 10000 uM GlcN6P of G9A G13U C50G U57A
Solution: 9.79e-05 s⁻¹

Exercise: Entry under review: C8A G44C C70A . Reported self-cleavage kobs at 10000 uM GlcN6P?
Solution: < 1e-05 s⁻¹

Exercise: Fill blank: measured self-cleavage kobs at 10000 uM GlcN6P of the variant G38U C68G is ____.
Solution: 0.000182 s⁻¹

Exercise: Could you tell me which self-cleavage kobs at 10000 uM GlcN6P is on file for A14G A39C G66A ?
Solution: 0.00527 s⁻¹

Exercise: # query: self-cleavage kobs at 10000 uM GlcN6P of entry C8U C50A
Solution: < 1e-05 s⁻¹

Exercise: Which value of self-cleavage kobs at 10000 uM GlcN6P has been reported for U46A C50A G59U in the records?
Solution: < 1e-05 s⁻¹

Exercise: I'd like to know its self-cleavage kobs at 10000 uM GlcN6P. The variant in question is U30G U46C C68U
Solution: 0.000214 s⁻¹

Exercise: I am curious: what self-cleavage kobs at 10000 uM GlcN6P value has been reported for G13U G38C G62A ?
Solution: < 1e-05 s⁻¹

Exercise: Can you share its self-cleavage kobs at 10000 uM GlcN6P? I mean this variant: C16U G29A G37C
Solution: 5.01e-05 s⁻¹

Exercise: Give its self-cleavage kobs at 10000 uM GlcN6P value. Item: G29U G60A C61A
Solution: < 1e-05 s⁻¹

Exercise: Item under review: G44A U46G . Reported self-cleavage kobs at 10000 uM GlcN6P?
Solution: 0.000221 s⁻¹

Exercise: Given the variant G13C A42G U65C , what is its reported self-cleavage kobs at 10000 uM GlcN6P?
Solution: < 1e-05 s⁻¹

Exercise: Would you kindly share the measured self-cleavage kobs at 10000 uM GlcN6P for `U57G` ?
Solution: 8.52e-05 s⁻¹

Exercise: Data request, read-out self-cleavage kobs at 10000 uM GlcN6P, for A6U C10A G41C U46A C70A
Solution: < 1e-05 s⁻¹
